Tested on: Hedgehog Signaling Pathway
test method notes: Gli-Luc reporter gene cell assay in C3H10T1/2/Gli-Luc cells stimulated with Shh
Type: cell-based, mouse
experimental context: Mus musculus, C3H 10T1/2, 24 h, 30 nM Shh, luciferase activity (RLU), read-out: IC50 values of compounds that inhibit Hh pathway
Property: log10 IC50; scope: individual compounds
value type: log10 IC50 (log10 of the value in nM)

chem smiles: Cc1cc(-c2ccc(C(F)(F)F)cc2)ccc1C(=O)Nc1ccc(Cl)c(-c2ncc(-c3ccc(F)cc3)[nH]2)c1
log10 IC50: 1.18

chem smiles: C[C@@H]1CN(c2ccc(C(=O)Nc3ccc(Cl)c(-c4ncc(C5CC5)[nH]4)c3)c(Cl)c2)C[C@H](C)N1C
log10 IC50: -0.01

chem smiles: Cc1csc(-c2cnc(-c3cc(NC(=O)c4ccc(N5C[C@@H](C)N(C)[C@@H](C)C5)cc4Cl)ccc3Cl)[nH]2)c1
log10 IC50: -0.01

chem smiles: Cc1cc(N2C[C@@H](C)N(C)[C@@H](C)C2)ccc1C(=O)Nc1ccc(Cl)c(-c2ncc(-c3nccs3)[nH]2)c1
log10 IC50: 0.83

chem smiles: Cc1csc(-c2cnc(-c3cc(NC(=O)c4ccc(N5C[C@@H](C)N(C)[C@@H](C)C5)cc4C)ccc3Cl)[nH]2)c1
log10 IC50: 0.08

chem smiles: C[C@@H]1CN(c2ccc(C(=O)Nc3ccc(Cl)c(-c4ncc(-c5cccn5C)[nH]4)c3)c(Cl)c2)C[C@H](C)N1C
log10 IC50: -0.52

chem smiles: CCc1cnc(-c2cc(NC(=O)c3ccc(N4C[C@@H](C)N(CC)[C@@H](C)C4)cc3Cl)ccc2Cl)[nH]1
log10 IC50: -0.17

* * *

Property: IC50; scope: individual compounds
Test system: Hedgehog Signaling Pathway
test method notes: Gli-Luc reporter gene cell assay in C3H10T1/2/Gli-Luc cells stimulated with Shh
Format: cell-based, mouse
experimental context: Mus musculus, C3H 10T1/2, 24 h, 30 nM Shh, luciferase activity (RLU), read-out: IC50 values of compounds that inhibit Hh pathway
Counter-ions that a name gives are not always drawn.
value type: IC50 (nM)

compound: Cc1cc(N2C[C@@H](C)N(C)[C@@H](C)C2)ccc1C(=O)Nc1cnc(C)c(-c2nc3ccccc3[nH]2)c1
value type: IC50
unit label: nM
number: 6.7

compound: Cc1cc(N2C[C@@H](C)N(C)[C@@H](C)C2)ccc1C(=O)Nc1ccc(Cl)c(-c2ncc(-c3ccco3)[nH]2)c1
value type: IC50
unit label: nM
number: 0.38

compound: C[C@@H]1CN(c2ccc(C(=O)Nc3ccc(Cl)c(-c4nc5ccccc5[nH]4)c3)cn2)C[C@H](C)O1
value type: IC50
unit label: nM
number: 7.8

compound: Cc1ncc(NC(=O)c2ccc(N3C[C@@H](C)N(C)[C@@H](C)C3)nc2)cc1-c1nc2ccccc2[nH]1
value type: IC50
unit label: nM
number: 25

compound: C[C@@H]1CN(c2ccc(C(=O)Nc3ccc(Cl)c(-c4nc5ccccc5s4)c3)c(Cl)c2)C[C@H](C)N1C
value type: IC50
unit label: nM
number: 8.5

compound: C[C@@H]1CN(c2ccc(C(=O)Nc3ccc(Cl)c(-c4ncc(C5CC5)[nH]4)c3)c(C(F)(F)F)c2)C[C@H](C)N1C
value type: IC50
unit label: nM
number: 1

compound: Cc1cc(-c2ccc(C(F)(F)F)cc2)ccc1C(=O)Nc1ccc(Cl)c(-c2nc3cnccc3[nH]2)c1
value type: IC50
unit label: nM
number: 7.2

compound: Cc1cc(N2C[C@@H](C)N(C)[C@@H](C)C2)ccc1C(=O)Nc1ccc(Cl)c(-c2ncc(C(C)C)[nH]2)c1
value type: IC50
unit label: nM
number: 0.22

compound: Cc1cc(N2C[C@@H](C)N(C)[C@@H](C)C2)ncc1C(=O)Nc1ccc(Cl)c(-c2nc3ccccc3[nH]2)c1
value type: IC50
unit label: nM
number: 0.75

compound: C[C@@H]1CN(c2ccc(C(=O)Nc3ccc(Cl)c(-c4ncc(C5CCCCC5)[nH]4)c3)c(Cl)c2)C[C@H](C)N1C
value type: IC50
unit label: nM
number: 10

compound: Cc1cc(N2C[C@@H](C)N(C)[C@@H](C)C2)ccc1C(=O)Nc1ccc(Cl)c(-c2ncc(C(C)(C)C)[nH]2)c1
value type: IC50
unit label: nM
number: 5.7

compound: C[C@@H]1CN(c2cc(Cl)c(C(=O)Nc3ccc(Cl)c(-c4ncc(C5CC5)[nH]4)c3)cc2F)C[C@H](C)N1C [Example 193, Dihydrochloride]
value type: IC50
unit label: nM
number: 0.56

compound: C[C@@H]1CN(c2ccc(C(=O)Nc3cnc(Cl)c(-c4nc5ccc(Cl)cc5[nH]4)c3)c(Cl)c2)C[C@H](C)N1C
value type: IC50
unit label: nM
number: 8.5
